# method.notes: Binding affinity to displace radioligand [3H]naltrindole on Opioid receptor delta 1 in guinea pig membranes.
measured.quantity: pKi
Value format note: pKi is -log10 of concentration (mol/L); just state the number.

Req: What value of pKi has been recorded for this entry: C[C@H]1[C@H]2Cc3ccc(Nc4ccccc4)cc3[C@@]1(C)CCN2CC1CC1
Resp: 8.28

###

# measured.on: Kappa-type opioid receptor (Cavia porcellus)
# Sequence (P41144 whole entry): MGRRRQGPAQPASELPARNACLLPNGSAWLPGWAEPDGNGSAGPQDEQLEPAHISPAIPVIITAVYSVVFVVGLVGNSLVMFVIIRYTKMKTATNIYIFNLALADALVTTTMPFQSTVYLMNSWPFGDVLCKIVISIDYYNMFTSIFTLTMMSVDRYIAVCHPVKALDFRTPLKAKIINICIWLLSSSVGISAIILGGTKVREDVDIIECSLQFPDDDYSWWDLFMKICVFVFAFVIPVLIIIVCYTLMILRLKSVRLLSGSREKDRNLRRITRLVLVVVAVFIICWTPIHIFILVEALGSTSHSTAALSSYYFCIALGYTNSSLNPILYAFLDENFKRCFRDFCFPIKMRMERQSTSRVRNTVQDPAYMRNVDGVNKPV
# method.notes: Binding affinity to displace radioligand [3H]U-69593 on Opioid receptor kappa 1 in guinea pig membranes.
# Type: cell membranes
I'd appreciate it if you could supply Ki values for the items below.

Req: Please provide the recorded Ki for CN1CC[C@]23c4c5ccc(Nc6ccccc6)c4O[C@H]2[C@@H](O)C=C[C@H]3[C@H]1C5 , tested on Kappa-type opioid receptor (Cavia porcellus).
Resp: 240 nM

Req: Repeat for the following compound: CN1CC[C@]23c4c5ccc(N)c4O[C@H]2[C@@H](O)C=C[C@H]3[C@H]1C5
Resp: 740 nM

Req: Repeat for the following compound: CN(C)c1ccc2c3c1O[C@H]1[C@@H](O)C=C[C@H]4[C@@H](C2)N(C)CC[C@@]341
Resp: 290 nM

Req: Repeat for the following compound: C[C@H]1[C@H]2Cc3ccc(N)cc3[C@@]1(C)CCN2CC1CC1
Resp: 1.2 nM

Req: Repeat for the following compound: CNc1ccc2c3c1O[C@H]1[C@@H](O)C=C[C@H]4[C@@H](C2)N(C)CC[C@@]341
Resp: 2800 nM

Req: Repeat for the following compound: CN1CC[C@]23c4c5ccc(NCc6ccccc6)c4O[C@H]2[C@@H](O)C=C[C@H]3[C@H]1C5
Resp: 3400 nM
